- Test Details: Primary screening of photostability of the CyNA library (time-course fluorescence, 8 h)
- Type: physicochemical
- Test Settings: 10 μM in HEPES 100 mM pH 7.4, 2% DMSO
Assign max RFU, maximum relative fluorescence units to each entry below.
Numbers only.

Sample records with max RFU, maximum relative fluorescence units:
Compound	Experimental Value
CCCN1/C(=C/C=C2\CCCC(/C=C/C3=[N+](CCC)c4ccccc4C3(C)C)=C2N(CCc2ccc(OC)cc2)C(C)=O)C(C)(C)c2ccccc21 [CyNA-395]	234.3
CCCN1/C(=C/C=C2\CCCC(/C=C/C3=[N+](CCC)c4ccccc4C3(C)C)=C2N(CCc2cccc(OC)c2)C(C)=O)C(C)(C)c2ccccc21 [CyNA-102]	998.9
CCCN1/C(=C/C=C2\CCCC(/C=C/C3=[N+](CCC)c4ccccc4C3(C)C)=C2N(Cc2ccc(Cl)cc2Cl)C(C)=O)C(C)(C)c2ccccc21 [CyNA-531]	187.5
CCCN1/C(=C/C=C2\CCCC(/C=C/C3=[N+](CCC)c4ccccc4C3(C)C)=C2N(CC)C(C)=O)C(C)(C)c2ccccc21.[I-] [CyNA-295]	698.6
CCCN1/C(=C/C=C2\CCCC(/C=C/C3=[N+](CCC)c4ccccc4C3(C)C)=C2N(Cc2ccccc2Br)C(C)=O)C(C)(C)c2ccccc21 [CyNA-329]	348.8

Note: attention shifts to another entry.
Value of max RFU, maximum relative fluorescence units reported for the compound CCCN1/C(=C/C=C2\CCCC(/C=C/C3=[N+](CCC)c4ccccc4C3(C)C)=C2N(Cc2c(OC)cc(OC)cc2OC)C(C)=O)C(C)(C)c2ccccc21 [CyNA-336] is 827.7

* * *

- Test Details: Absorbance and fluorescence maximum wavelengths and quantum yields of the CyNA library
- Assay type: physicochemical
- Test Settings: in DMSO, Cardiogreen as standard
- Procedure: Since the k values of the different CyNA compounds indicated some dependency on the chemical structure of the amine, the CyNA scaffold was derivatized with a broad range of primary amines (FIGS. 4A-4C). The fluorescence properties of the 80-member CyNA library were measured. The absorption maximum wavelengths ranged from 802 nm to 806 nm, emission maximum wavelengths ranged from 817 nm to 823 nm, and the average quantum yield was approximately 0.10 (Table 2). […]
Endpoint Label: φ, quantum yield
Answers are plain numbers.

Compound	Experimental Value
CCCN1/C(=C/C=C2\CCCC(/C=C/C3=[N+](CCC)c4ccccc4C3(C)C)=C2N(C(C)=O)C(C)CCc2ccccc2)C(C)(C)c2ccccc21 (stereo not drawn)	0.14

Parameter requested: φ, quantum yield. Apply to each item below.
1. CCCN1/C(=C/C=C2\CCCC(/C=C/C3=[N+](CCC)c4ccccc4C3(C)C)=C2N(Cc2ccccc2F)C(C)=O)C(C)(C)c2ccccc21
2. CCCN1/C(=C/C=C2\CCCC(/C=C/C3=[N+](CCC)c4ccccc4C3(C)C)=C2N(CCCN(C)C)C(C)=O)C(C)(C)c2ccccc21
3. CCCCCN(C(C)=O)C1=C(/C=C/C2=[N+](CCC)c3ccccc3C2(C)C)CCC/C1=C\C=C1\N(CCC)c2ccccc2C1(C)C

OUT:
0.07
0.14
0.13

* * *

- Test Details: Primary screening of photostability of the CyNA library (time-course fluorescence, 8 h)
- Type: physicochemical
- Set-up: unit: %
- Test Settings: 10 μM in HEPES 100 mM pH 7.4, 2% DMSO
What F/Fo, fluorescent intensity at 8 hours vs 0 hours was measured for each of the following?
Numbers only.

Molecule	Experimental Value
CCCN1/C(=C/C=C2\CCCC(/C=C/C3=[N+](CCC)c4ccccc4C3(C)C)=C2N(CCC(C)C)C(C)=O)C(C)(C)c2ccccc21	54

Field: F/Fo, fluorescent intensity at 8 hours vs 0 hours. Fill in for each record below.
1. CCCN1/C(=C/C=C2\CCCC(/C=C/C3=[N+](CCC)c4ccccc4C3(C)C)=C2N(CC(C)CC)C(C)=O)C(C)(C)c2ccccc21 (stereo not drawn)
2. CCCN1/C(=C/C=C2\CCCC(/C=C/C3=[N+](CCC)c4ccccc4C3(C)C)=C2N(CCCc2ccccc2)C(C)=O)C(C)(C)c2ccccc21

OUT:
1: 38; 2: 50

* * *

- Test Details: Absorbance and fluorescence maximum wavelengths and quantum yields of the CyNA library
- Type: physicochemical
- Test Settings: in DMSO, Cardiogreen as standard
Endpoint Label: φ, quantum yield
One number for each entry.

Recorded φ, quantum yield, per entry:
Compound	Experimental Value
CCCN1/C(=C/C=C2\CCCC(/C=C/C3=[N+](CCC)c4ccccc4C3(C)C)=C2N(Cc2cccc(OC)c2)C(C)=O)C(C)(C)c2ccccc21 [CyNA-387]	0.07
CCCN1/C(=C/C=C2\CCCC(/C=C/C3=[N+](CCC)c4ccccc4C3(C)C)=C2N(Cc2ccc(Cl)cc2Cl)C(C)=O)C(C)(C)c2ccccc21 [CyNA-531]	0.08
CCCN1/C(=C/C=C2\CCCC(/C=C/C3=[N+](CCC)c4ccccc4C3(C)C)=C2N(CCCc2ccccc2)C(C)=O)C(C)(C)c2ccccc21 [CyNA-335]	0.06
CCCN1/C(=C/C=C2\CCCC(/C=C/C3=[N+](CCC)c4ccccc4C3(C)C)=C2N(CCc2ccc(O)cc2)C(C)=O)C(C)(C)c2ccccc21 [CyNA-346]	0.07
CCCN1/C(=C/C=C2\CCCC(/C=C/C3=[N+](CCC)c4ccccc4C3(C)C)=C2N(CC(C)CC)C(C)=O)C(C)(C)c2ccccc21 (stereo not drawn) [CyNA-574]	0.06
CCCN1/C(=C/C=C2\CCCC(/C=C/C3=[N+](CCC)c4ccccc4C3(C)C)=C2N(CCCN2CCCCC2C)C(C)=O)C(C)(C)c2ccccc21.[I-] (stereo not drawn) [CyNA-414]	0.13
CCCN1/C(=C/C=C2\CCCC(/C=C/C3=[N+](CCC)c4ccccc4C3(C)C)=C2N(CCCOC)C(C)=O)C(C)(C)c2ccccc21.[I-] [CyNA-165]	0.09
CCCN1/C(=C/C=C2\CCCC(/C=C/C3=[N+](CCC)c4ccccc4C3(C)C)=C2N(Cc2cccc(Cl)c2)C(C)=O)C(C)(C)c2ccccc21 [CyNA-403]	0.05
CCCN1/C(=C/C=C2\CCCC(/C=C/C3=[N+](CCC)c4ccccc4C3(C)C)=C2N(Cc2ccccc2OCC)C(C)=O)C(C)(C)c2ccccc21 [CyNA-103]	0.14
CCCN1/C(=C/C=C2\CCCC(/C=C/C3=[N+](CCC)c4ccccc4C3(C)C)=C2N(Cc2cc(OC)c(OC)c(OC)c2)C(C)=O)C(C)(C)c2ccccc21 [CyNA-356]	0.12

# batch: return φ, quantum yield for each of the 2 compounds below
1. CCCN1/C(=C/C=C2\CCCC(/C=C/C3=[N+](CCC)c4ccccc4C3(C)C)=C2N(Cc2ccco2)C(C)=O)C(C)(C)c2ccccc21 [CyNA-446]
2. CCCN1/C(=C/C=C2\CCCC(/C=C/C3=[N+](CCC)c4ccccc4C3(C)C)=C2N(CCc2ccccn2)C(C)=O)C(C)(C)c2ccccc21.[I-] [CyNA-111]

OUT:
1: 0.08; 2: 0.11

* * *

- Test Details: Primary screen of SERS intensities of CyNAMLA-functionalized AuNPs (compact Raman scanner)
- Format: physicochemical
- Test Settings: SERS spectra of CyNAMLA-functionalized AuNPs; excitation at 785 nm, laser power 60 mW
Endpoint Label: Raman intensity
Give bare numbers.

Compound	Raman intensity
CCCN1/C(=C/C=C2\CCCC(/C=C/C3=[N+](CCCNC(=O)CCCCC4CCSS4)c4ccccc4C3(C)C)=C2N(Cc2cc(OC)c(OC)c(OC)c2)C(C)=O)C(C)(C)c2ccccc21.O=C([O-])C(F)(F)F (stereo not drawn) [CyNAMLA-356]	2333

Hi team, please reply with Raman intensity for each item in this list.
1. CCCN1/C(=C/C=C2\CCCC(/C=C/C3=[N+](CCCNC(=O)CCCCC4CCSS4)c4ccccc4C3(C)C)=C2N(CCc2ccc(Cl)cc2Cl)C(C)=O)C(C)(C)c2ccccc21.O=C([O-])C(F)(F)F (stereo not drawn) [CyNAMLA-686]
2. CCCN1/C(=C/C=C2\CCCC(/C=C/C3=[N+](CCCNC(=O)CCCCC4CCSS4)c4ccccc4C3(C)C)=C2N(Cc2cccc(Br)c2)C(C)=O)C(C)(C)c2ccccc21.O=C([O-])C(F)(F)F (stereo not drawn) [CyNAMLA-341]
3. CCCN1/C(=C/C=C2\CCCC(/C=C/C3=[N+](CCCNC(=O)CCCCC4CCSS4)c4ccccc4C3(C)C)=C2N(Cc2ccc(Cl)cc2Cl)C(C)=O)C(C)(C)c2ccccc21.O=C([O-])C(F)(F)F (stereo not drawn) [CyNAMLA-531]
4. CCCN1/C(=C/C=C2\CCCC(/C=C/C3=[N+](CCCNC(=O)CCCCC4CCSS4)c4ccccc4C3(C)C)=C2N(CCc2ccccc2F)C(C)=O)C(C)(C)c2ccccc21.O=C([O-])C(F)(F)F (stereo not drawn) [CyNAMLA-477]

OUT:
8146
1071
5272
9679

So, CCCN1/C(=C/C=C2\CCCC(/C=C/C3=[N+](CCCNC(=O)CCCCC4CCSS4)c4ccccc4C3(C)C)=C2N(CCc2ccc(Cl)cc2)C(C)=O)C(C)(C)c2ccccc21.O=C([O-])C(F)(F)F (stereo not drawn) [CyNAMLA-677] ? Its Raman intensity was 2455
